biological target: T1, Dimeric fibrinogen-like domain of human Ang-2 conjugated to human IgG1 (human); experiment: blocking ELISA, 16.67 nM antibody, coated hTie-2-mFc
T1 construct: also called Dimeric Human Ang-2FD; Human Ang-2FD-hFc
T1 sequence (chain, as listed by the source limits assumed): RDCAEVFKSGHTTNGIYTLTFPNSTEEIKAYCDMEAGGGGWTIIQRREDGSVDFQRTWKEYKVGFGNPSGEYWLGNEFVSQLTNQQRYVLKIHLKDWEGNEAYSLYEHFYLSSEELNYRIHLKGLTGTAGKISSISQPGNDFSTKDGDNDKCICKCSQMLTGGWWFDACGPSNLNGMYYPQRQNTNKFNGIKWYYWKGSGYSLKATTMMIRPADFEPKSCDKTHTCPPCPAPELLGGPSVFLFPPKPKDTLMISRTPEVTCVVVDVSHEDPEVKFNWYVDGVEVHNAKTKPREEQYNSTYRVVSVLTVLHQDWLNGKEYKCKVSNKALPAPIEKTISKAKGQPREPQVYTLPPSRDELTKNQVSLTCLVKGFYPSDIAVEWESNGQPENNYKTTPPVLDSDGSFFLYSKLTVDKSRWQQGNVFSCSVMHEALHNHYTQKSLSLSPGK
Percent Blocking of Ang-2FD Binding to Tie-2 overview
Experimental Readout: Percent Blocking of Ang-2FD Binding to Tie-2 (%)

Binder	Units Of Measure	Numeric Value
H1M732N (antibody, V domains shown) VH: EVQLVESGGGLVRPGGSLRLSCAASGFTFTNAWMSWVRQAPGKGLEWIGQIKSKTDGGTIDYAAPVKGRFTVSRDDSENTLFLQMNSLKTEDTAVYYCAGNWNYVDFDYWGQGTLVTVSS VL: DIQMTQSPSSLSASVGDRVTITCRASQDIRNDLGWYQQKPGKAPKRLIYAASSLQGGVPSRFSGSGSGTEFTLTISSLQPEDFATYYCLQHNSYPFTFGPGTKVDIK	%	97.7
H2M742N (antibody, V domains shown) VH: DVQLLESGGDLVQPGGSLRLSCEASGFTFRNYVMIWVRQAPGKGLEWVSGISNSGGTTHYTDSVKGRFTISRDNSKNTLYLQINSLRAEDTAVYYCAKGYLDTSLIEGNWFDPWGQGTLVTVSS VL: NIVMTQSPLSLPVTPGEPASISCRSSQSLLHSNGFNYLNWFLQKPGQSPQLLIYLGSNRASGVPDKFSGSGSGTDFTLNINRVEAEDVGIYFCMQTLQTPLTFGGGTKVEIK	%	99.6
H1M728N (antibody, V domains shown) VH: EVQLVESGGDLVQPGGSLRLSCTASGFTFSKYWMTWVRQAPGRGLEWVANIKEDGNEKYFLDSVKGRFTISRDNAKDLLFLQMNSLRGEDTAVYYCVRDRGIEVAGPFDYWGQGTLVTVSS VL: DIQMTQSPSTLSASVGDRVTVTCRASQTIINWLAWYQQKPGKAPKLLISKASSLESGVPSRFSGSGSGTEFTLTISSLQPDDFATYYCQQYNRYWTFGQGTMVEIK	%	98.5
